Test: Agilent ZORBAX 300 SB-C18, 150 × 1 mm, 3.5 µm; A: water + 0.01% heptafluorobutyric acid; B: acetonitrile + 0.01% heptafluorobutyric acid; gradient (min/%B) 0/0 100/90
Details: stereoisomer not certain
measurement kind: LC retention time (min)
One number for each entry, in min.

Some entries whose results are on file:
smiles string: CN(C)c1ccncc1
LC retention time [min]: 7.29
--
smiles string: CCCCc1ccc(NC(=O)Cc2ccc(OC)c(OC)c2)cc1
LC retention time [min]: 15.6
--
smiles string: CCSc1ccc2c(c1)N(CCCN1CCN(C)CC1)c1ccccc1S2
LC retention time [min]: 12.8

-- ask For the molecule CNCCc1ccncc1 , give its measured LC retention time value.
-- reply 6.72

====

Experiment: Agilent ZORBAX 300 SB-C18, 150 × 1 mm, 3.5 µm; A: water + 0.01% heptafluorobutyric acid; B: acetonitrile + 0.01% heptafluorobutyric acid; gradient (min/%B) 0/0 100/90
Conditions: stereoisomer not certain
I would appreciate it if you labelled entries Condition met when LC retention time is 8 min or higher, otherwise Condition not met.

Some solved entries appear below for comparison.
molecule: CN(C)C(=O)Nc1ccccc1
cat: Condition met
//
molecule: CCn1c2ccccc2c2cc(C=Nn3c(C)cc(C)cc3=O)ccc21
cat: Condition met
//
molecule: CN(C)CCCOc1nn(Cc2ccccc2)c2ccccc12
cat: Condition met

-- ask # bool: LC retention time of CN1C(=O)NC(c2ccccc2)C2=C1CN(c1ccc(CC(=O)O)cc1)C2=O (stereo not given) >= 8 min
-- reply Condition met

-- ask # bool: LC retention time of CC(C)(C)NCC(O)COc1cccc2c1CCC(=O)N2 (stereo not given) >= 8 min
-- reply Condition met

-- ask # bool: LC retention time of O=c1[nH]c2ccccc2[nH]c1=O >= 8 min
-- reply Condition not met

-- ask # bool: LC retention time of NCc1ccccc1CN >= 8 min
-- reply Condition not met

-- ask # bool: LC retention time of O=C1CCN(c2ccccc2)N1 >= 8 min
-- reply Condition met

-- ask # bool: LC retention time of CSc1cccc2cccnc12 >= 8 min
-- reply Condition met

-- ask # bool: LC retention time of COc1cc(OC)c2cc[nH]c2c1 >= 8 min
-- reply Condition met

====

Please respond with reported log10 LC retention time for every item in the list.
Test: Agilent ZORBAX 300 SB-C18, 150 × 1 mm, 3.5 µm; A: water + 0.01% heptafluorobutyric acid; B: acetonitrile + 0.01% heptafluorobutyric acid; gradient (min/%B) 0/0 100/90
Conditions: stereoisomer not certain
In plain terms, each number is the log10 of measured LC retention time in min.

compound: CCCCc1c(O)c2ccccc2n(-c2ccccc2)c1=O
quantitative result: 1.16
//
compound: CNCCCn1c(=O)[nH]c2ccccc21
quantitative result: 0.88
//
compound: Cc1ccc2[nH]c3nc4ccccc4nc3c2c1
quantitative result: 1.12

Need log10 LC retention time for each of these compounds.
1. S=C(NCc1ccc2[nH]c3c(c2c1)CCCC3)Nc1cccc2ccccc12
2. NC(=O)c1cn(CC(=O)O)c(=O)[nH]c1=O

-- reply
1: 1.20; 2: 0.20

====

Experiment: Agilent ZORBAX 300 SB-C18, 150 × 1 mm, 3.5 µm; A: water + 0.01% heptafluorobutyric acid; B: acetonitrile + 0.01% heptafluorobutyric acid; gradient (min/%B) 0/0 100/90
Settings: stereoisomer not certain
measurement kind: LC retention time (min)
Numbers only, in min.

compound: OCc1cccnc1-c1ncccc1CO
LC retention time [min]: 6.38

Need LC retention time for each of these compounds.
1. Cc1ccc2[nH]ccc2c1
2. Cc1cccc(CN2CCN(CN3C(=O)c4ccccc4C3=O)CC2)c1
3. CC(=O)Nc1c(C)cc(C)cc1N
4. O=C(O)CC1C(=O)Nc2ccccc21 (stereo not drawn)
5. Nc1ccc2[nH]ncc2c1
6. C#CCN(CCCC)CCCC
7. C(=Cc1ccco1)C=NN1CCN(Cc2cccc3ccccc23)CC1

-- reply
1: 12.8; 2: 10.3; 3: 7.92; 4: 7.72; 5: 5.74; 6: 9.04; 7: 11.2

All figures here come from the RepoRT retention time repository.
